tested on: Escherichia coli BW25113; assay: plate-normalized OD600 growth (mean of duplicates) (OD600 (normalized)); higher = more growth (less inhibition); conditions: temperature: 15°C; 48 h; 10 µM
Over roughly 2,300 compounds, “plate-normalized OD600 growth (mean of duplicates)” has its median near 0.29; the lowest 2% begin near 0.22. For the sample, the lowest values were picked, then their nearest neighbours and some compounds at random.
parameter: plate-normalized OD600 growth
Lab note: jot down the number only; don't add units.

Consider the compound shown here: CCCCCCCCNC(=O)C(=O)Nc1cccc(F)c1 What is its recorded plate-normalized OD600 growth?
0.244

Consider the compound shown here: COc1ccc(Cc2nnc(-c3ccc(-c4cccs4)s3)o2)cc1 What is its recorded plate-normalized OD600 growth?
0.258

Consider the compound shown here: O=c1[nH]c(-c2cn[nH]c2-c2ccc(F)cc2)nc2sc3c(c12)CCCC3 What is its recorded plate-normalized OD600 growth?
0.237

Consider the compound shown here: Cc1ccc(S(=O)(=O)N=C(Nc2ccc(O)c(Cl)c2)c2ccccc2)cc1 What is its recorded plate-normalized OD600 growth?
0.232

Consider the compound shown here: COc1ccc(/C(C)=N\NC2=NCCCN2)cc1 What is its recorded plate-normalized OD600 growth?
0.214

Consider the compound shown here: Cc1ccc(C2=Nc3ccccc3N=C(C(Cl)Cl)C2)cc1 What is its recorded plate-normalized OD600 growth?
0.25

Consider the compound shown here: O=C(CC1(O)C(=O)C=C(c2ccccc2)N1N=C(c1ccccc1)c1ccccc1)c1ccccc1 (centres undefined) What is its recorded plate-normalized OD600 growth?
0.242

Consider the compound shown here: CCOc1cc(/C=N/n2cnc3sc4c(c3c2=O)CCCC4)cc(Br)c1OCc1ccc(Cl)cc1 What is its recorded plate-normalized OD600 growth?
0.245

Consider the compound shown here: O=C1CC(NCc2ccco2)C(=O)N1c1ccc(OC(F)(F)Cl)cc1 (centres undefined) What is its recorded plate-normalized OD600 growth?
0.268

Consider the compound shown here: CCOc1ccc(-c2[nH]nc3c2C2(C(=O)Nc4ccc(C)c(Br)c42)C(C#N)=C(N)O3)cc1 (centres undefined) What is its recorded plate-normalized OD600 growth?
0.245

Consider the compound shown here: CC(C)c1ncc(C(O)c2cccc3ccccc23)n1C (centres undefined) What is its recorded plate-normalized OD600 growth?
0.249

Consider the compound shown here: CN1N=C(SCc2ccc(Cl)cc2Cl)Sc2c1cnn(C)c2=O What is its recorded plate-normalized OD600 growth?
0.25

Consider the compound shown here: O=C1C=C(Cl)CC(c2ccc(C(F)(F)F)cc2)C1 (centres undefined) What is its recorded plate-normalized OD600 growth?
0.243

Consider the compound shown here: NNC(=O)c1cnn(-c2ccc(Cl)cc2)c1C(F)(F)F What is its recorded plate-normalized OD600 growth?
0.253

Consider the compound shown here: COc1ccc(C(=O)[C@@H]2[C@@H](c3cccs3)C(C#N)(C#N)[C@H]3C=Cc4ccccc4N23)cc1 What is its recorded plate-normalized OD600 growth?
0.251

Consider the compound shown here: O=C(Nc1ccc(Cl)cc1Cl)c1cnccn1 What is its recorded plate-normalized OD600 growth?
0.245

Consider the compound shown here: COC(=O)CN1C(=O)C2(C(C#N)=C(N)Oc3n[nH]c(C)c32)c2ccccc21 (centres undefined) What is its recorded plate-normalized OD600 growth?
0.207

Consider the compound shown here: NC(N)=NS(=O)(=O)c1ccc(NC(=O)C2CCCCC2)cc1 What is its recorded plate-normalized OD600 growth?
0.256

Consider the compound shown here: COc1ccc(Nc2nc(N/N=C/c3ccc(-c4cccc(C(=O)O)c4)o3)nc(Nc3ccccc3)n2)cc1 What is its recorded plate-normalized OD600 growth?
0.226

Consider the compound shown here: CC1COCCN1c1cc(N2CCCCC2C(F)(F)F)[nH]c(=O)c1 (centres undefined) What is its recorded plate-normalized OD600 growth?
0.265

Consider the compound shown here: CC(C)(C)OC(=O)NC(Cc1ccc(OCc2ccccc2)cc1)C(=O)O (centres undefined) What is its recorded plate-normalized OD600 growth?
0.26

Consider the compound shown here: CC(C)(C)NC(=O)c1cc(NC(=O)C(F)(F)F)cc(NC(=O)C(F)(F)F)c1 What is its recorded plate-normalized OD600 growth?
0.234

Consider the compound shown here: N#CC1=C2N=C(N)c3c(sc4c3CCCC4)N2C2=C(C(=O)CCC2)C1c1cccnc1 (centres undefined) What is its recorded plate-normalized OD600 growth?
0.246

Consider the compound shown here: O=C(Nc1nc(-c2ccccc2)cs1)C1CC(O)CN1C(=O)Oc1ccccc1 (centres undefined) What is its recorded plate-normalized OD600 growth?
0.263

Consider the compound shown here: O=C(/C=C/c1cccs1)C(C(=O)c1ccccc1)=C1SCCCCS1 What is its recorded plate-normalized OD600 growth?
0.244

Consider the compound shown here: COC(=O)C1=NN(c2ccccc2Cl)C2(S1)c1ccccc1C(C)=NN2c1ccccc1 (centres undefined) What is its recorded plate-normalized OD600 growth?
0.234

Consider the compound shown here: O=C(Nc1ccc(S(=O)(=O)Nc2cccc(Cl)c2Cl)cc1)C1COc2ccccc2O1 (centres undefined) What is its recorded plate-normalized OD600 growth?
0.262

Consider the compound shown here: COc1ccccc1N=C(N)SCc1ccccc1 What is its recorded plate-normalized OD600 growth?
0.236

Consider the compound shown here: Clc1cccc(Cl)c1/C=N/Nc1nncc(-c2ccccc2)n1 What is its recorded plate-normalized OD600 growth?
0.186

Consider the compound shown here: O=C1/C(=C\c2ccccc2)N=C(c2ccccc2)N1CNc1nccs1 What is its recorded plate-normalized OD600 growth?
0.254

Consider the compound shown here: Cc1ccc(NC(=O)Nc2ccc(C)c(NC(=O)Nc3ccc(C)cc3)c2)cc1 What is its recorded plate-normalized OD600 growth?
0.242

Consider the compound shown here: O=C(COc1ccccc1[N+](=O)[O-])Nc1ccccn1 What is its recorded plate-normalized OD600 growth?
0.24

Consider the compound shown here: COc1ccc(/C=N/NC(=O)COc2ccc(Cl)cc2)cc1I What is its recorded plate-normalized OD600 growth?
0.257

Consider the compound shown here: O=C(CC1CCC1)Nc1cc(Cl)ccc1Cl What is its recorded plate-normalized OD600 growth?
0.256

Consider the compound shown here: Nc1nc(=Nc2ccccc2)n2c(n1)sc1ccccc12 What is its recorded plate-normalized OD600 growth?
0.243

Consider the compound shown here: O=C(O)c1ccc(Br)c(NC(=O)C2C3C=CC(C3)C2C(=O)O)c1 (centres undefined) What is its recorded plate-normalized OD600 growth?
0.248

Consider the compound shown here: Cc1ccc(NC(=O)CCN2CCN(c3ccccc3)CC2)cc1 What is its recorded plate-normalized OD600 growth?
0.26

Consider the compound shown here: O=C(O)c1cccc(N=Cc2ccc(OCc3ccc(F)cc3)cc2)c1 What is its recorded plate-normalized OD600 growth?
0.225

Consider the compound shown here: COc1cc(NC(=O)CCN2CCC(C)CC2)cc(OC)c1 What is its recorded plate-normalized OD600 growth?
0.217

Consider the compound shown here: CCOc1ccc(NC(=O)CC2S/C(=N\N=C\c3ccc(C)s3)NC2=O)cc1 (centres undefined) What is its recorded plate-normalized OD600 growth?
0.222

Consider the compound shown here: Cc1ccc2c(c1)N(CCO)C(C)(C)CC2C (centres undefined) What is its recorded plate-normalized OD600 growth?
0.211

Consider the compound shown here: Cc1cc(NC(=NS(=O)(=O)c2ccc(Br)cc2)c2ccccc2)c(Cl)c(C)c1O What is its recorded plate-normalized OD600 growth?
0.214

Consider the compound shown here: CC1=C(C#N)C(c2c(C)[nH]n(-c3ccccc3)c2=O)(C(F)(F)F)C(=O)N1 (centres undefined) What is its recorded plate-normalized OD600 growth?
0.26

Consider the compound shown here: COCc1cc(C)c2c(n1)sc1c2nc(C)n2c3ccccc3nc12 What is its recorded plate-normalized OD600 growth?
0.244
